# Test system: HCC1569
# assay.comment: H1.0 immunofluorescence intensity relative to DMSO (% of DMSO); higher = stronger H1.0 induction, active = 140 or more
# run.parameters: concentration: 10 µM; 24 h
Kind request: treat 100 as inclusive, so H1.0 immunofluorescence intensity at 100 or higher is rule met, anything lower is rule not met.

# input Please check the record "Cc1cnc(-c2cc(N3CCN(C(=O)CCS(C)(=O)=O)CC3)ncc2Cl)c(C)c1.Cl" and state if its H1.0 immunofluorescence intensity is at or above 100.
# output rule met

# input Please check the record Nc1nc(=O)c2nc(Br)n(C3OC4COP(=O)([O-])OC4C3O)c2[nH]1.[Na+] (stereo not drawn) [8-Bromo-cGMP sodium] and state if its H1.0 immunofluorescence intensity is at or above 100.
# output rule not met

# input Please check the record "CNc1nc(-c2ccc3c(N)n[nH]c3c2)cc(N2C[C@@H](C(=O)NC3CCCCC3)CC[C@H]2C)n1" and state if its H1.0 immunofluorescence intensity is at or above 100.
# output rule met

# input Please check the record "c1cc(-c2cnn3cc(-c4ccc(OCCN5CCCCC5)cc4)cnc23)ccn1" and state if its H1.0 immunofluorescence intensity is at or above 100.
# output rule met

---

# Test system: TDF
# assay.comment: cell number relative to DMSO (% of DMSO); higher = more cells (less growth inhibition / toxicity)
# run.parameters: concentration: 10 µM; 24 h
Give measured cell number for each item. Keep answers brief.
Respond with the number and no other words.

# input Which measured cell number belongs to "Cc1ccc(CN2C(=O)S/C(=C\c3ccc(Cl)cc3)C2=O)cc1" , tested on TDF?
# output 117

# input Which measured cell number belongs to Cc1[nH]c2ccccc2c1CCNC(=O)c1cccs1 [N-[2-(2-methyl-1H-indol-3-yl)ethyl]-2-thiophenecarboxamide] , tested on TDF?
# output 95.5

# input Which measured cell number belongs to "N#Cc1c(O)c2c(-c3ccc(-c4ccccc4O)cc3)csc2[nH]c1=O" , tested on TDF?
# output 92.5

# input Which measured cell number belongs to "CCOC(=O)CCNc1cc(N2CCc3ccccc3CC2)nc(-c2ccccn2)n1" , tested on TDF?
# output 20.8

# input Which measured cell number belongs to CC1CNc2c(cccc2S(=O)(=O)NC(CCCN=C(N)N)C(=O)N2CCC(C)CC2C(=O)O)C1 (configuration not stated) , tested on TDF?
# output 104

# input Which measured cell number belongs to "O=C(O)c1ccc(O)c(O)c1" , tested on TDF?
# output 106

# input Which measured cell number belongs to "CC(C)=CCCC(C)=CCCC(C)=CCSc1ccccc1C(=O)O" , tested on TDF?
# output 99.9

# input Which measured cell number belongs to O=C(CCNNC(=O)c1ccncc1)NCc1ccccc1 [Nialamide] , tested on TDF?
# output 103

# input Which measured cell number belongs to "Cl.O[C@H](c1cc(C(F)(F)F)nc2c(C(F)(F)F)cccc12)[C@@H]1CCCCN1" , tested on TDF?
# output 56.7

# input Which measured cell number belongs to "Nc1nc(Nc2ccc(S(N)(=O)=O)cc2)nn1C(=S)Nc1c(F)cccc1F" , tested on TDF?
# output 14.2

# input Which measured cell number belongs to "COc1ccc(-c2ccc(N)[n+](CCCC(=O)O)n2)cc1.[Br-]" , tested on TDF?
# output 97.9

# input Which measured cell number belongs to "CN1CCN(c2ccc3c(c2)NC(=C2C(=O)N=c4cccc(F)c4=C2N)N3)CC1" , tested on TDF?
# output 72.6

# input Which measured cell number belongs to C=CC1CN2CCC1CC2C(O)c1ccnc2ccc(OC)cc12.C=CC1CN2CCC1CC2C(O)c1ccnc2ccc(OC)cc12.O=S(=O)(O)O (configuration not stated) [Quinine sulfate] , tested on TDF?
# output 97.8

# input Which measured cell number belongs to "CCCCOc1ccc(-c2cncc(C(=O)NCc3cccnc3N3CCOCC3)c2)cc1Cl" , tested on TDF?
# output 104

# input Which measured cell number belongs to "COc1ccccc1N1CCN(CCCNc2c(C)c(=O)n(C)c(=O)n2C)CC1" , tested on TDF?
# output 121

# input Which measured cell number belongs to CCCCCC(O)C=CC1C(O)CC(O)C1CC(=O)CCC(=O)O (configuration not stated) , tested on TDF?
# output 114

# input Which measured cell number belongs to O=C1Nc2cc(Br)ccc2C1=C1N=c2ccccc2=C1NO [GSK-3 Inhibitor IX] , tested on TDF?
# output 70.1

---

Give measured cell number for each item. Keep answers brief.
# Test system: HCC1569
# assay.comment: cell number relative to DMSO (% of DMSO); higher = more cells (less growth inhibition / toxicity)
# run.parameters: concentration: 10 µM; 24 h
Respond with the number and no other words.

# input What value of cell number has been reported for the following molecule? CC1(C)CNc2cc(NC(=O)c3cccnc3NCc3ccncc3)ccc21 [Motesanib]
# output 90

# input What value of cell number has been reported for the following molecule? CCCCCC(O)C=CC=CCC=CCCCCC(=O)O (stereo not drawn)
# output 103

# input What value of cell number has been reported for the following molecule? O=C1C=C(CO)OCC1=O [5-hydroxy-2-(hydroxymethyl)-4H-pyran-4-one]
# output 105

# input What value of cell number has been reported for the following molecule? "Brc1c(NC2=NCCN2)ccc2nccnc12"
# output 103

# input What value of cell number has been reported for the following molecule? CN1CCCN=C1C=Cc1cccs1.O=C(O)c1cc2ccccc2c(Cc2c(O)c(C(=O)O)cc3ccccc23)c1O [Pyrantel Pamoate]
# output 94.4

# input What value of cell number has been reported for the following molecule? CC1=NS(=O)(=O)c2cc(Cl)ccc2N1 [Diazoxide]
# output 101

# input What value of cell number has been reported for the following molecule? CON=C(C(=O)NC1C(=O)N2C(C(=O)O)=C(COC(C)=O)CSC12)c1csc(N)n1 (stereo not drawn) [Cefotaxime Acid]
# output 107

# input What value of cell number has been reported for the following molecule? "CC(C)=CCc1cc2c(cc1O)oc(=O)c1c3ccc(O)cc3oc21"
# output 106

# input What value of cell number has been reported for the following molecule? CCCCCC(=O)CCC1C(O)CC(O)C1CC=CCCCC(=O)O (stereo not drawn) [13,14-Dihydro-15-keto-prostaglandin F2a]
# output 99.9

# input What value of cell number has been reported for the following molecule? "O=[N+]([O-])c1ccc(-c2nc(-c3ccc(F)cc3)c(-c3ccncc3)[nH]2)cc1"
# output 89.9

# input What value of cell number has been reported for the following molecule? NC(N)=NC(=O)c1nc(Cl)c(N)nc1N [Amiloride]
# output 101

# input What value of cell number has been reported for the following molecule? O=c1ccc2cc(O)c(O)cc2o1 [Esculetin]
# output 101

# input What value of cell number has been reported for the following molecule? C=C1CCC(O)CC1=CC=C1CCCC2(C)C1CCC2C(C)CCC(O)C(C)(C)O [24(R),25-Dihydroxyvitamin D3]
# output 105

# input What value of cell number has been reported for the following molecule? O=C(O)c1cn(-c2ccc(F)cc2)c2cc(N3CCNCC3)c(F)cc2c1=O [Sarafloxacin]
# output 105

# input What value of cell number has been reported for the following molecule? CCC1C(=O)OCC1Cc1cncn1C.O=[N+]([O-])O (stereo not drawn) [Pilocarpine nitrate]
# output 98

# input What value of cell number has been reported for the following molecule? COC1C=COC2(C)Oc3c(C)c(O)c4c(O)c(cc([O-])c4c3C2=O)NC(=O)C(C)=CC=CC(C)C(O)C(C)C(O)C(C)C(OC(C)=O)C1C.[Na+] (stereo not drawn)
# output 103

# input What value of cell number has been reported for the following molecule? CCN1CCCC1CNC(=O)c1c(OC)ccc(Br)c1OC (stereo not drawn) [Remoxipride]
# output 101

# input What value of cell number has been reported for the following molecule? Cn1cnc2c1c(=O)[nH]c(=O)n2C [Theobromine]
# output 104

# input What value of cell number has been reported for the following molecule? COc1ccc(C(=O)NCc2cccnc2)cc1C(=O)NCc1cccnc1 [Picotamide]
# output 102

# input What value of cell number has been reported for the following molecule? CC(=O)Oc1ccc(C(c2ccc(OC(C)=O)cc2)c2ccccn2)cc1 [Bisacodyl]
# output 94.2

# input What value of cell number has been reported for the following molecule? CNCCC(Oc1ccc(C(F)(F)F)cc1)c1ccccc1.Cl (stereo not drawn) [R-(-)-Fluoxetine hydrochloride]
# output 92

# input What value of cell number has been reported for the following molecule? CC#N.Nc1nc(Nc2ccc(S(N)(=O)=O)cc2)nn1C(=O)c1c(F)cccc1F [Aurora Kinase/Cdk Inhibitor]
# output 62

# input What value of cell number has been reported for the following molecule? "O.O=c1c(O)c(-c2ccc(O)cc2O)oc2cc(O)cc(O)c12"
# output 104

# input What value of cell number has been reported for the following molecule? COC(=O)C1C(O)CCC2CN3CCc4c([nH]c5ccccc45)C3CC21.Cl (stereo not drawn) [Rauwolscine]
# output 103

# input What value of cell number has been reported for the following molecule? O=C(NC(NC(=S)Nc1ccc(F)c([N+](=O)[O-])c1)C(Cl)(Cl)Cl)C(c1ccccc1)c1ccccc1 (stereo not drawn)
# output 58.2

# input What value of cell number has been reported for the following molecule? "CN(C)[C@@H](CCOc1cccc2ccccc12)c1ccccc1.Cl"
# output 90.3

# input What value of cell number has been reported for the following molecule? CC1CCc2c(N3CCC(O)CC3)c(F)cc3c(=O)c(C(=O)O)cn1c23 (stereo not drawn) [Nadifloxacin]
# output 107

# input What value of cell number has been reported for the following molecule? O=C1CCc2ccc(OCCCCN3CCN(c4cccc(Cl)c4Cl)CC3)cc2N1 [Aripiprazole]
# output 95.5

# input What value of cell number has been reported for the following molecule? CCC1OC(=O)C(C)C(OC2CC(C)(OC)C(O)C(C)O2)C(C)C(OC2OC(C)CC(N(C)C)C2O)C(C)(O)CC(C)CN(C)C(C)C(O)C1(C)O (stereo not drawn) [Azithromycin]
# output 106

# input What value of cell number has been reported for the following molecule? COc1c(N2CC3CCCNC3C2)c(F)cc2c(=O)c(C(=O)O)cn(C3CC3)c12.Cl (stereo not drawn) [Moxifloxacin.HCl]
# output 101

# input What value of cell number has been reported for the following molecule? "Cn1c(=O)c2c(ncn2Cc2ccc(C(C)(C)C)cc2)n(C)c1=O"
# output 81.6

# input What value of cell number has been reported for the following molecule? OCC1OC(n2cnc3c(Nc4ccccc4)ncnc32)C(O)C1O (stereo not drawn) [N6-Phenyladenosine]
# output 101

# input What value of cell number has been reported for the following molecule? CCCCCC(O)CC=C1C(=O)C=CC1CC=CCCCC(=O)O (stereo not drawn) [D12-Prostaglandin J2]
# output 108
